All figures here come from patent US20250296971A1.

Biological target: human Gastric Inhibitory Peptide Receptor (GIPR) (human) (UniProt P48546)
Sequence (P48546 22-466 limits assumed): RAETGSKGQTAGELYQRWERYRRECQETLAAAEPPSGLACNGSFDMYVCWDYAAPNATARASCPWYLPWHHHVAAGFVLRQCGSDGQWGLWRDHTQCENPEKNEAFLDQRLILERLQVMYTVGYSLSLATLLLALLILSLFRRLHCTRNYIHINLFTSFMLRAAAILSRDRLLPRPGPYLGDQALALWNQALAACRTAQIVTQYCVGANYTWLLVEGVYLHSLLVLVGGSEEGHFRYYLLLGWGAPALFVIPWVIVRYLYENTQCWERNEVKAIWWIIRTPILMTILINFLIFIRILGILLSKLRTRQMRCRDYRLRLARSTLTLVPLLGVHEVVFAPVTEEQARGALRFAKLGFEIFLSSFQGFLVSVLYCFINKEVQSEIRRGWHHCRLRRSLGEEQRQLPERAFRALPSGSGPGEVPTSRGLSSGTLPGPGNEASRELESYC
Assay: FACS competition vs biotinylated GIP-057 on CHO-K1-hGIPR cells; category B: pIC50 7.1-8.0
*1 amine or outer side, *2 acyl side, *3 side chain or, on linkers, in order; H or OH if unused. Bridges are numbered along the chain shown (N, C = ends). Primed or numbered codes have the meaning given here. [ ]: non-standard residue; d: D form. The star is where a group is joined. DOTA = O=C(O)CN1CCN(CC(=O)O)CCN(CC(=O)*)CCN(CC(=O)O)CC1; Trp(5-Cl) = N[C@@H](Cc1c[nH]c2ccc(Cl)cc12)C(=O)O; Pyridine(2,6-diCH2) = c1cc(C[*:1])nc(C[*:2])c1; Phe(2-Cl) = N[C@@H](Cc1ccccc1Cl)C(=O)O; Hyp = O=C(O)[C@@H]1C[C@@H](O)CN1; hArg = N=C(N)NCCCC[C@H](N)C(=O)O; hCys = N[C@@H](CCS)C(=O)O; Api = NC1(C(=O)O)CCNCC1; Thp = NC1(C(=O)O)CCOCC1; mli″ = maleimide
I'd be grateful if you could share measured pIC50 for these entries.

What value of measured pIC50 is listed for Ac-D[Phe(2-Cl)][Trp(5-Cl)][Hyp]E[dL]C[Api](DOTA)LIC-NH2 (linker 7-11 via Pyridine(2,6-diCH2)) [Ac-Asp-Ocf-5Clw-Hyp-Glu-leu-[Cys(2Lut)-Apc(DOTA)-Leu-Ile-Cys]-NH2] ?
7.1 to 8 pic50

What value of measured pIC50 is listed for Ac-DW[Trp(5-Cl)][Hyp]E[dL][hCys][Thp]LIC-NH2 (linker 7-11 via mli″) [Ac-Asp-Trp-5Clw-Hyp-Glu-leu-[Hcy(mli)-Thp-Leu-Ile-Cys]-NH2] ?
7.1 to 8 pic50

What value of measured pIC50 is listed for Ac-DW[Trp(5-Cl)][Hyp][hArg][dL]C[Thp]LIC-NH2 (linker 7-11 via Pyridine(2,6-diCH2); SMILES CC[C@H](C)[C@@H]1NC(=O)[C@H](CC(C)C)NC(=O)C2(CCOCC2)NC(=O)[C@@H](NC(=O)[C@@H](CC(C)C)NC(=O)[C@H](CCCCNC(=N)N)NC(=O)[C@@H]2C[C@@H](O)CN2C(=O)[C@H](Cc2c[nH]c3ccc(Cl)cc23)NC(=O)[C@H](Cc2c[nH]c3ccccc23)NC(=O)[C@H](CC(=O)O)NC(C)=O)CSCc2cccc(n2)CSC[C@@H](C(N)=O)NC1=O) [Ac-Asp-Trp-5Clw-Hyp-Har-leu-[Cys(2Lut)-Thp-Leu-Ile-Cys]-NH2] ?
7.1 to 8 pic50
